System: Prostate cancer subpanel
Experiment description: NCI-60 screen, subpanel Prostate cancer
Quantity kind: Selectivity, ratio MID a: MID b

Recorded Selectivity, ratio MID a: MID b, per entry:
Molecule	Tgt	Quantity kind	Result
C=C(C)[C@@H]1CC[C@]2(C(=O)NCCNCCNCCN)CC[C@]3(C)[C@H](CC[C@@H]4[C@@]5(C)CC[C@H](O)C(C)(C)[C@@H]5CC[C@]43C)[C@@H]12 [Compound 6]	Prostate cancer subpanel	Selectivity, ratio MID a: MID b	1.42
CC(=O)OCC12CCC(C(C)C(N)=O)C1C1CCC3C4(C)CCC(OC(C)=O)C(C)(C)C4CCC3(C)C1(C)CC2 (stereo not drawn) [Compound 4]	Prostate cancer subpanel	Selectivity, ratio MID a: MID b	1.25
C=C(C)[C@@H]1CC[C@]2(C(=O)OC)CC[C@]3(C)[C@H](CC[C@@H]4[C@@]5(C)CCC(=NOCCC(=NOCCC#N)NCCC#N)C(C)(C)[C@@H]5CC[C@]43C)[C@@H]12 [Compound 21]	Prostate cancer subpanel	Selectivity, ratio MID a: MID b	1.31
C=C(C)[C@@H]1CC[C@]2(C(=O)NCCNCCNCCN)CC[C@]3(C)[C@H](CC[C@@H]4[C@@]5(C)CCC(=O)C(C)(C)[C@@H]5CC[C@]43C)[C@@H]12 [Compound 11]	Prostate cancer subpanel	Selectivity, ratio MID a: MID b	1.33
C=C(C)[C@@H]1CC[C@]2(C(=O)NCCCN)CC[C@]3(C)[C@H](CC[C@@H]4[C@@]5(C)CCC(=O)C(C)(C)[C@@H]5CC[C@]43C)[C@@H]12 [Compound 10]	Prostate cancer subpanel	Selectivity, ratio MID a: MID b	1.36

Next item in the queue.
q: Form field: Selectivity, ratio MID a: MID b recorded for C=C(C)[C@@H]1CC[C@]2(C(N)=O)CC[C@]3(C)[C@H](CC[C@@H]4[C@@]5(C)CC[C@H](O)C(C)(C)[C@@H]5CC[C@]43C)[C@@H]12 [Compound 5] with Prostate cancer subpanel (enter value)
a: 1.22

* * *

A collection of compounds and their measured Selectivity, ratio MID a: MID b
Test system: Colon Cancer subpanel
Experiment description: NCI-60 screen, subpanel Colon Cancer
Simply state the number, no unit and no words.

Recorded Selectivity, ratio MID a: MID b, per entry:
In [3]: df
Out[3]:
                                   compound                    tgt                    quantity_kind  number
0  C=C(C)[C@@H]1CC[C@]2(C(N)=O)CC[C@]3(C)[C@H](CC[C@@H]4[C@@]5(C)CC[C@H](O)C(C)(C)[C@@H]5CC[C@]43C)[C@@H]12  Colon Cancer subpanel  Selectivity, ratio MID a: MID b    1.14
1  CC(=O)OCC12CCC(C(C)C(N)=O)C1C1CCC3C4(C)CCC(OC(C)=O)C(C)(C)C4CCC3(C)C1(C)CC2 (stereo not drawn)  Colon Cancer subpanel  Selectivity, ratio MID a: MID b    1.47

Next item in the queue.
q: Suppose we examine the compound `C=C(C)[C@@H]1CC[C@]2(C(=O)NCCNCCNCCN)CC[C@]3(C)[C@H](CC[C@@H]4[C@@]5(C)CCC(=O)C(C)(C)[C@@H]5CC[C@]43C)[C@@H]12` ; what Selectivity, ratio MID a: MID b value has been reported?
a: 1.19

* * *

Test system: Leukemia subpanel
Experiment description: NCI-60 screen, subpanel Leukemia
Quantity kind: Selectivity, ratio MID a: MID b
Simply state the number, no unit and no words.

Molecule	Tgt	Number
C=C(C)[C@@H]1CC[C@]2(C(=O)NCCNCCNCCN)CC[C@]3(C)[C@H](CC[C@@H]4[C@@]5(C)CCC(=O)C(C)(C)[C@@H]5CC[C@]43C)[C@@H]12	Leukemia subpanel	1.19

q: Form field: Selectivity, ratio MID a: MID b recorded for `C=C(C)[C@@H]1CC[C@]2(C(=O)OC)CC[C@]3(C)[C@H](CC[C@@H]4[C@@]5(C)CCC(=NOCCC(=NOCCC#N)NCCC#N)C(C)(C)[C@@H]5CC[C@]43C)[C@@H]12` with Leukemia subpanel (enter value)
a: 2.09

q: Param item: `C=C(C)[C@@H]1CC[C@]2(C(=O)NCCCN)CC[C@]3(C)[C@H](CC[C@@H]4[C@@]5(C)CCC(=O)C(C)(C)[C@@H]5CC[C@]43C)[C@@H]12`
a: 1.40

q: Param item: `C=C(C)[C@@H]1CC[C@]2(C(N)=O)CC[C@]3(C)[C@H](CC[C@@H]4[C@@]5(C)CC[C@H](O)C(C)(C)[C@@H]5CC[C@]43C)[C@@H]12`
a: 1.15

q: Param item: `C=C(C)[C@@H]1CC[C@]2(C(=O)NCCNCCNCCN)CC[C@]3(C)[C@H](CC[C@@H]4[C@@]5(C)CC[C@H](O)C(C)(C)[C@@H]5CC[C@]43C)[C@@H]12`
a: 1.83

q: Param item: CC(=O)OCC12CCC(C(C)C(N)=O)C1C1CCC3C4(C)CCC(OC(C)=O)C(C)(C)C4CCC3(C)C1(C)CC2 (stereo not drawn)
a: 2.22

* * *

Test system: SF-295
Experiment description: NCI-60 SRB screen: CNS cancer SF-295
Format: cell-based, human
Condition summary: Homo sapiens; SF-295; five concentrations, 48 h, SRB; read-out: GI50
Quantity kind: GI50 (µM)
Report only the number, with the unit µM understood.

Recorded GI50, per entry:
Molecule	GI50 [µM]
C=C(C)[C@@H]1CC[C@]2(C(=O)NCCNCCNCCN)CC[C@]3(C)[C@H](CC[C@@H]4[C@@]5(C)CCC(=O)C(C)(C)[C@@H]5CC[C@]43C)[C@@H]12	9.42
C=C(C)[C@@H]1CC[C@]2(C(=O)OC)CC[C@]3(C)[C@H](CC[C@@H]4[C@@]5(C)CCC(=NOCCC(=NOCCC#N)NCCC#N)C(C)(C)[C@@H]5CC[C@]43C)[C@@H]12	21.4

q: Form field: GI50 recorded for `C=C(C)[C@@H]1CC[C@]2(C(=O)NCCCN)CC[C@]3(C)[C@H](CC[C@@H]4[C@@]5(C)CCC(=O)C(C)(C)[C@@H]5CC[C@]43C)[C@@H]12` with SF-295 (enter value)
a: 22.6

q: Param item: CC(=O)OCC12CCC(C(C)C(N)=O)C1C1CCC3C4(C)CCC(OC(C)=O)C(C)(C)C4CCC3(C)C1(C)CC2 (centres unmarked)
a: 8.57

q: Param item: `C=C(C)[C@@H]1CC[C@]2(C(=O)NCCNCCNCCN)CC[C@]3(C)[C@H](CC[C@@H]4[C@@]5(C)CC[C@H](O)C(C)(C)[C@@H]5CC[C@]43C)[C@@H]12`
a: 13.8

* * *

A collection of compounds and their measured pIC50
Tgt: Yeast α-Glucosidase
Experiment description: Yeast α-glucosidase activity assay
Type: biochemical, S. cerevisiae
Condition summary: pH 6.8, 37 °C, p-nitrophenyl-α-D-glucopyranoside 1 mM; read-out: Yeast α-Glucosidase, IC50 ± SE
pIC50: −log10 of the molar value.

Recorded pIC50, per entry:
                                 mol_smiles  quantity_kind  result
0  C=C(C)[C@@H]1CC[C@]2(C(=O)NCCCNCCCN)CC[C@]3(C)[C@H](CC[C@@H]4[C@@]5(C)CCC(=O)C(C)(C)[C@@H]5CC[C@]43C)[C@@H]12          pIC50  < 4.00
1  C=C(C)[C@@H]1CC[C@]2(C=NCCCNCCCCN)CC[C@]3(C)[C@H](CC[C@@H]4[C@@]5(C)CCC(=O)C(C)(C)[C@@H]5CC[C@]43C)[C@@H]12          pIC50  < 4.00

q: Suppose we examine the compound `C=C(C)[C@@H]1CC[C@]2(C(=O)NCCNCCNCCN)CC[C@]3(C)[C@H](CC[C@@H]4[C@@]5(C)CCC(=O)C(C)(C)[C@@H]5CC[C@]43C)[C@@H]12` ; what pIC50 value has been reported?
a: 5.32

q: Param item: `C=C(C)[C@@H]1CC[C@]2(C=NCCCNCCCCN)CC[C@]3(C)[C@H](CC[C@@H]4[C@@]5(C)CCCNC(C)(C)[C@@H]5CC[C@]43C)[C@@H]12`
a: < 4.00

q: Param item: `C=C(C)[C@@H]1CC[C@]2(C(=O)OC)CC[C@]3(C)[C@H](CC[C@@H]4[C@@]5(C)C/C(=C/NC(N)=S)C(=O)C(C)(C)[C@@H]5CC[C@]43C)[C@@H]12`
a: < 4.00

q: Param item: `C=C(C)[C@@H]1CC[C@]2(C(=O)NCCNCCN)CC[C@]3(C)[C@H](CC[C@@H]4[C@@]5(C)CCC(=O)C(C)(C)[C@@H]5CC[C@]43C)[C@@H]12`
a: < 4.00
